Tested on: A375 cells
Experiment: A-to-I PepTile screen: fitness effect upon IFNα (PepTile abundance untreated vs treated)
Format: cell-based, human
Conditions: A375, PepTile abundance upon IFNα treatment; negative = synthetic lethal, positive = protector
Source text: FIGS. 12A-12D. A-to-I PepTile screen. (A) Composition of A-to-I PepTile linrary screen, and schematic description of the lentiviral expression vector. (B) Experimental workflow. A375 cells were transduced at low MOI, and then treated or not with IFNα for 48 hrs. RNA was extracted and Peptide_ADARreporter RNA species were amplified and sequenced by NGS. […] Red line is the mean A-to-I editing of all the 8088 peptides (>100 read counts) no treatment: 25.75% IFNα: 37.6%. […]
Answer each item with its documented Fitness Score IFNα.
One number for each entry.

Field: example entries. Status: answers known.
In [3]: df
Out[3]:
                              chainsequence  resultvalue
0  MSGTSYSGYEAAVYSAASSYYQQQQQQQKQAAAAAAAAAAT [ZFR_66]         2.04
1  MSILARLDMQRGVHGRLMDNSTSVREAAVELLGRFVLCRPQ [NIPBL_452]         2.31
2  MKEHMDAINHDTKELEKMTNRQGMLLKKKEECMKKIRELGS [SMC3_228]        -3.54
3  MASLQISPQPRPWRPLPAQAQSAWGPAPAPATYRAEGGWPQ [ADAD2_6]         3.12

Switching to the query record.
Record lookup: for A375 cells, what Fitness Score IFNα belongs to MYSGYEAAVYSAASSYYQQQQQQQKQAAAAAAAAAATAAWT [ZFR_67] ?
2.43
